Hello, the source for this data is ChEMBL document CHEMBL1133236, in case you need it.

- System: Aspergillus niger
- assay-method-text: Antifungal activity against Aspergillus niger KCTC 1231
- Type: functional
quantity-kind: MIC (µg/mL)

CCCCCCc1ccc(NC2=CC(=O)c3sc(C)nc3C2=O)cc1 ... 12.5
COC1=CC(=O)c2sc(C)nc2C1=O ... 12.5
O=C1C=C(Nc2ccc(F)cc2)C(=O)c2scnc21 ... 3.2
O=C1C=C(Nc2ccc(OC(F)(F)F)cc2)C(=O)c2scnc21 ... 3.2
CCOc1ccc(NC2=CC(=O)c3ncsc3C2=O)cc1 ... 3.2
O=C1C=C(Nc2cccc(F)c2)C(=O)c2scnc21 ... 1.6
Cc1ccc(NC2=CC(=O)c3sc(C)nc3C2=O)cc1 ... 12.5
Cc1nc2c(s1)C(=O)C=C(Nc1ccccc1)C2=O ... 12.5

(A) Nc1nc(=O)[nH]cc1F [FLUCYTOSINE]
(B) Cc1nc2c(s1)C(=O)C=C(Nc1cccc(Cl)c1)C2=O
(C) Cc1nc2c(s1)C(=O)C=C(Nc1ccc(OC(F)(F)F)cc1)C2=O
(D) O=C1C=C(Nc2ccccc2)C(=O)c2scnc21
(E) COC1=CC(=O)c2ncsc2C1=O
stdin: Rank by MIC (largest to smallest). Field: ranking. Enter the labels in the order requested.
stdout: E, B, C, D, A

---

- System: Candida albicans
- assay-method-text: Antifungal activity against Candida albicans ATCC 10231
- Type: functional
quantity-kind: MIC (µg/mL)

(I) Cc1nc2c(s1)C(=O)C=C(Nc1ccc(OC(F)(F)F)cc1)C2=O
(II) COC1=CC(=O)c2ncsc2C1=O
(III) COC1=CC(=O)c2sc(C)nc2C1=O
(IV) Cc1nc2c(s1)C(=O)C=C(Nc1ccc(F)cc1)C2=O
stdin: List the molecules shown above again, sorted by falling MIC values. Field: ranking. Enter the labels in the order requested.
stdout: II, III, I, IV
(II: 50 µg/mL, III: 25 µg/mL, I: 12.5 µg/mL, IV: 3.2 µg/mL)

---

- Tested on: Candida albicans
- assay-method-text: Antifungal activity against Candida albicans ATCC 10231
- Format: functional
quantity-kind: MIC (µg/mL)

Example entries begin here.
Cc1nc2c(s1)C(=O)C=C(Nc1ccc(C)c(C)c1)C2=O ... 12.5
O=C1C=C(Nc2cccc(F)c2)C(=O)c2scnc21 ... 12.5
Cc1nc2c(s1)C(=O)C=C(Nc1cccc(Br)c1)C2=O ... 12.5

(A) Cc1nc2c(s1)C(=O)C=C(Nc1ccccc1)C2=O
(B) CCOc1ccc(NC2=CC(=O)c3sc(C)nc3C2=O)cc1
(C) Cc1nc2c(s1)C(=O)C=C(Nc1cccc(Cl)c1)C2=O
stdin: Rank by MIC (largest to smallest). Field: ranking. Enter the labels in the order requested.
stdout: C, A, B
(C: 12.5 µg/mL, A: 6.3 µg/mL, B: 3.2 µg/mL)

---

- System: Candida tropicalis
- assay-method-text: Antifungal activity against Candida tropicalis ATCC 28775
- Type: functional
quantity-kind: MIC (µg/mL)

(I) Cc1nc2c(s1)C(=O)C=C(Nc1cccc(Cl)c1)C2=O
(II) Nc1nc(=O)[nH]cc1F
stdin: Select one: I or II . Criterion: greater recorded MIC. Let me know the label of the one you choose.
stdout: II

(P) O=C1C=C(Nc2ccccc2)C(=O)c2scnc21
(Q) COC1=CC(=O)c2sc(C)nc2C1=O
stdin: Select one: P or Q . Criterion: greater recorded MIC. Let me know the label of the one you choose.
stdout: Q

(I) CCCCCCc1ccc(NC2=CC(=O)c3sc(C)nc3C2=O)cc1
(II) Cc1nc2c(s1)C(=O)C=C(Nc1ccc(Cl)cc1)C2=O
(III) O=C1C=C(Nc2ccc(OC(F)(F)F)cc2)C(=O)c2scnc21
(IV) Cc1nc2c(s1)C(=O)C=C(Nc1ccc(OC(F)(F)F)cc1)C2=O
(V) Cc1nc2c(s1)C(=O)C=C(Nc1ccccc1)C2=O
stdin: Rank by MIC (largest to smallest). Field: ranking. Enter the labels in the order requested.
stdout: II, III, I, V, IV

(P) O=C1C=C(Nc2ccc(F)cc2)C(=O)c2scnc21
(Q) COC1=CC(=O)c2ncsc2C1=O
stdin: // returns P or Q , whichever has the lower MIC Let me know the label of the one you choose.
stdout: P

(1) Cc1nc2c(s1)C(=O)C=C(Nc1cccc(Br)c1)C2=O
(2) Cc1nc2c(s1)C(=O)C=C(Nc1ccc(C(F)(F)F)cc1)C2=O
stdin: // returns 1 or 2 , whichever has the lower MIC Let me know the label of the one you choose.
stdout: 1

(A) CCOc1ccc(NC2=CC(=O)c3sc(C)nc3C2=O)cc1
(B) O=C1C=C(Nc2ccc(Cl)cc2)C(=O)c2scnc21
stdin: Select one: A or B . Criterion: greater recorded MIC. Let me know the label of the one you choose.
stdout: B
(B: 12.5 µg/mL, A: 6.3 µg/mL)

(1) CCOc1ccc(NC2=CC(=O)c3ncsc3C2=O)cc1
(2) Cc1nc2c(s1)C(=O)C=C(Nc1ccc(F)cc1)C2=O
stdin: Select one: 1 or 2 . Criterion: greater recorded MIC. Let me know the label of the one you choose.
stdout: 1
(1: 12.5 µg/mL, 2: 6.3 µg/mL)

(P) O=C1C=C(Nc2cccc(F)c2)C(=O)c2scnc21
(Q) Cc1nc2c(s1)C(=O)C=C(Nc1ccc(C)c(C)c1)C2=O
stdin: Select one: P or Q . Criterion: greater recorded MIC. Let me know the label of the one you choose.
stdout: P
(P: 12.5 µg/mL, Q: 0.4 µg/mL)
